- study-system: Huntingtin (Homo sapiens)
- test-details: mutant huntingtin-calmodulin interaction inhibitors – biochemical, AlphaScreen, primary screen (AID 1671202);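 note: 0% = both proteins with DMSO and 100% = one protein alone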
- protocol-conditions: AlphaScreen His-mHTT/GST-CaM binding, luminescence; at 15 µM, active compounds read high
Hit rate of the full screen: of about 190,000 compounds, about 6,900 (3.6%) were called active. The entries come from a sample that favours actives as a whole.
reported-property: inhibition (%)
Numbers only, in %.

molecule=COCCOCC1CCN(C(=O)c2cccc(N(C)C)c2)CC1 val=-11.5
molecule="COc1ccc(C2=NN3C(C2)c2cc(OC)ccc2OC3(C)C)cc1 (stereo unspecified)" val=64
molecule="COc1ccc(C2C3C(=O)N(c4ccc([N+](=O)[O-])cc4)C(=O)C3N3CCCN23)cc1 (stereo unspecified)" val=-1
molecule="COc1ccc(C2=NN3COc4ccc(Br)cc4C3C2)cc1 (stereo unspecified)" val=34
molecule=Cc1ccccc1NS(=O)(=O)c1cc(Br)cc2c1N(C(=O)C1CC1)CC2 val=2
molecule=O=C(Nc1ccc(Cn2cncn2)cc1)c1ccc(Cl)cc1 val=17.8
molecule="CCCC(=O)N1CCC2(C1)C(=O)Nc1ccccc12 (stereo unspecified)" val=0.5
molecule=COc1ccc(-n2nc3c(c2NC(=O)c2ccccc2Cl)CSC3)cc1 val=22

Hey, can you go through the list below and give me inhibition for every item?
1. COc1ccc(-n2ncc3c(N4CCc5ccccc54)ncnc32)cc1
2. COc1ccc(-c2nnc(N3CCC(C(=O)NC4CCCCC4)CC3)o2)cc1
3. COc1ccc(C2=NN3COc4ccc(Cl)cc4C3C2)cc1 (stereo unspecified)

a:
1: 11; 2: 7.1; 3: 27
